Tgt: T1, Mouse serum albumin (mouse, UniProt P07724 25-608)
T1 construct: serum albumin, mouse; also called MSA; source: bought: Sigma
Assay overview: SPR; BIAcore 3000; peptide serially diluted and injected; KD by BIAcore kinetic evaluation Ver. 4.1; method by refs 48, 49
Assay conditions: both partners purified
pKd: −log10 of the molar value.

{"columns": ["Binder", "pKd"],
 "data": [
  ["MWQRPSSWIEGRLLTHTISRIAVSYQTKVNLL (P16, TNF α segment of amino acid residues 75-94, human; also called recombinant peptide RMP16) [RMP16, recombinant TNF α-derived polypeptide]", 6.03]
]}
